Test: Solubility in water (rework study)
Assay type: physicochemical
Experimental: A brief rework study for compound 1, (containing 1.6% benzoic acid per AUC, HPLC) was executed in 10 vol of water (1 g in 10 mL): All three experiments gave compound 1 with less than 0.1% benzoic acid (UAC, HPLC). The slurries were fluid, were easily stirred and filtration was fast. […] Without wishing to be bound by theory, a loss of NMT than 1% is expected (solubility 1 mg/mL). […]
Assay Endpoint: solubility (µg/mL)
Write down the numeric answer in µg/mL and omit the unit.

I'd like to know its solubility. The compound in question is Cc1nc(N)c2c(C(N)=O)cn([C@@H]3O[C@H](CO)[C@@H](O)[C@H]3O)c2n1 [Compound 1]
1000

====

tested on: HFF; conditions: HFF cells, parallel to HSV-2 assay
Assay Endpoint: CC50

Query: CC50; subject: `Cc1nc(N)c2c(C(N)=O)cn([C@@H]3O[C@H](CO)[C@@H](O)[C@H]3O)c2n1`
> 60 µM

====

assay: Cytotoxicity in lymphocyte assays, Akata cells; format: cell-based; conditions: human, parallel to EBV assay
Assay Endpoint: CC50

// returns reported CC50 for input Cc1nc(N)c2c(C(N)=O)cn([C@@H]3O[C@H](CO)[C@@H](O)[C@H]3O)c2n1 [Compound 1]
> 60 µM

====

tested on: Vero76; details: Vero76 cells, parallel to WNV assay
Assay Endpoint: CC50

Data request, read-out CC50, for Cc1nc(N)c2c(C(N)=O)cn([C@@H]3O[C@H](CO)[C@@H](O)[C@H]3O)c2n1 [Compound 1]
> 100 µM

====

test system: HCMV; assay: Plaque-reduction assay for HCMV; assay type: cell-based, human cytomegalovirus; conditions: Human betaherpesvirus 5, HFF cells
pEC50: −log10 of the molar value.
Assay Endpoint: pEC50

# pEC50 lookup, item Cc1nc(N)c2c(C(N)=O)cn([C@@H]3O[C@H](CO)[C@@H](O)[C@H]3O)c2n1 [Compound 1]
< 4.22

====

system: Vero76; conditions: African green monkey
Assay Endpoint: CC50

For `Cc1nc(N)c2c(C(N)=O)cn([C@@H]3O[C@H](CO)[C@@H](O)[C@H]3O)c2n1` , what is its reported CC50?
> 100 µM

====

test system: mouse norovirus; assay: Mouse Norovirus (MNV) assay in RAW cells; conditions: murine norovirus, Table 7
As shown below, each of these compounds has a reported pEC50 value.
Quick note: pEC50 means taking -log10 of the concentration in moles per liter.

Cc1nc(N)c2c(C(N)=O)cn([C@@H]3O[C@H](COP(=O)(O)N[C@@H](C)C(=O)OC(C)C)[C@@H](O)[C@H]3O)c2n1 : 5.49
[2H][C@@]1(n2cc(C(N)=O)c3c(N)nc(C)nc32)O[C@H](CO)[C@@H](O)[C@H]1O : 5.51
Cc1nc(N)c2c(C(N)=O)cn([C@@H]3O[C@H](COP(=O)(O)O)[C@@H](O)[C@H]3O)c2n1 : 5.50

Return reported pEC50; argument: `Cc1nc(N)c2c(C(N)=O)cn([C@@H]3O[C@H](COC(=O)[C@@H](N)CC(C)C)[C@@H](O)[C@H]3O)c2n1`
5.36

Quick one: pEC50 for `Cc1nc(N)c2c(C(N)=O)cn([C@@H]3O[C@H](COC(=O)[C@H](CC(C)C)NC(=O)OCC4c5ccccc5-c5ccccc54)[C@@H](O)[C@H]3O)c2n1` ?
4.79
